System: 616215-338-R-J1-PDC complex spheroid viability;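 note: spheroids exposed to compounds for one week before readout; percent viability relative to DMSO vehicle wells taken as 100%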
protocol.summary: Anticancer human tumor 616215-338-R-J1-PDC patient-derived colon adenocarcinoma cell line growth inhibition [POLQ]
recorded.conditions: second compound 10 µM; first compound 0.1 µM; hits give low values
Please provide measured viability, T/C for the entries that follow.
One number for each entry, in %.

CC(C)n1c(=O)n(C)c2cnc3cc(F)c(-c4ccc(OCCCN5CCCCC5)nc4)cc3c21 + Cc1cccc(N(C)C(=O)C2C(O)CCN2c2nc(C)cc(C(F)(F)F)c2C#N)c1 : 114
O=C(Nc1ccc(O)c(NS(=O)(=O)c2ccc(F)cc2)c1)c1ccc(-c2ccccc2)cc1 + Cc1cccc(N(C)C(=O)C2C(O)CCN2c2nc(C)cc(C(F)(F)F)c2C#N)c1 : 102
Cn1ncnc1[C@H]1c2n[nH]c(=O)c3cc(F)cc(c23)N[C@@H]1c1ccc(F)cc1 + COC1C(OC(N)=O)C(O)C(Oc2ccc3c(O)c(NC(=O)c4ccc(O)c(CC=C(C)C)c4)c(=O)oc3c2C)OC1(C)C : 97.1

Working through the 7 molecules below one at a time, give viability, T/C for each.
1. O=c1[nH]cc(F)c(=O)[nH]1 + Cc1cccc(N(C)C(=O)C2C(O)CCN2c2nc(C)cc(C(F)(F)F)c2C#N)c1
2. COc1cccc(OCCCN)c1-c1cc(Nc2cnc(C#N)cn2)n[nH]1 + COC1C(OC(N)=O)C(O)C(Oc2ccc3c(O)c(NC(=O)c4ccc(O)c(CC=C(C)C)c4)c(=O)oc3c2C)OC1(C)C
3. CCc1cc2c(N3CCc4c(cc(Cn5ccnc5)cc4-c4cn(C)nc4C(F)(F)F)C3=O)ccnc2c(OC)n1 + Nc1ccc(C#CCN(C(=O)Cc2ncc(C(F)(F)F)cc2C(F)(F)F)c2ccc(F)cc2)nn1
4. CNCc1ccc(-c2[nH]c3cc(F)cc4c3c2CCNC4=O)cc1 + Cc1cccc(N(C)C(=O)C2C(O)CCN2c2nc(C)cc(C(F)(F)F)c2C#N)c1
5. CC1COCCN1c1cc(-c2ccnn2C)c2ccnc(-c3ccn[nH]3)c2n1 (stereo unspecified) + Nc1ccc(C#CCN(C(=O)Cc2ncc(C(F)(F)F)cc2C(F)(F)F)c2ccc(F)cc2)nn1
6. COc1cc2cc(C(=O)CCC(=O)O)sc2cc1OC + COC1C(OC(N)=O)C(O)C(Oc2ccc3c(O)c(NC(=O)c4ccc(O)c(CC=C(C)C)c4)c(=O)oc3c2C)OC1(C)C
7. Nc1ccn(C2OC(CO)C(O)C2(F)F)c(=O)n1 (stereo unspecified) + COC1C(OC(N)=O)C(O)C(Oc2ccc3c(O)c(NC(=O)c4ccc(O)c(CC=C(C)C)c4)c(=O)oc3c2C)OC1(C)C

OUTPUT:
106
79.8
104
105
56.4
91.7
34.6

For every item below, please supply its viability, T/C.
1. C#Cc1c(F)ccc2cc(O)cc(-c3ncc4c(N5CC6CCC(C5)N6)nc(OCC56CCCN5CC(F)C6)nc4c3F)c12 (stereo unspecified) + Cc1cccc(N(C)C(=O)C2C(O)CCN2c2nc(C)cc(C(F)(F)F)c2C#N)c1
2. C=CCn1c(=O)c2cnc(Nc3ccc(N4CCN(C)CC4)cc3)nc2n1-c1cccc(C(C)(C)O)n1 + Cc1cccc(N(C)C(=O)C2C(O)CCN2c2nc(C)cc(C(F)(F)F)c2C#N)c1
3. CCc1cc2c(N3CCc4c(cc(Cn5ccnc5)cc4-c4cn(C)nc4C(F)(F)F)C3=O)ccnc2c(OC)n1 + COC1C(OC(N)=O)C(O)C(Oc2ccc3c(O)c(NC(=O)c4ccc(O)c(CC=C(C)C)c4)c(=O)oc3c2C)OC1(C)C
4. CC[C@@]1(O)C(=O)OCc2c1cc1n(c2=O)Cc2cc3c(CN(C)C)c(O)ccc3nc2-1 + COC1C(OC(N)=O)C(O)C(Oc2ccc3c(O)c(NC(=O)c4ccc(O)c(CC=C(C)C)c4)c(=O)oc3c2C)OC1(C)C
5. CNCc1ccc(-c2[nH]c3cc(F)cc4c3c2CCNC4=O)cc1 + COC1C(OC(N)=O)C(O)C(Oc2ccc3c(O)c(NC(=O)c4ccc(O)c(CC=C(C)C)c4)c(=O)oc3c2C)OC1(C)C

OUTPUT:
[101, 83.8, 97.7, 58.8, 101]
